- Tested on: M. bovis BCG (ATCC 35734)
- Measurement Protocol: microbe, parasite or virus in culture
- Assay type: cell-based
- Run Conditions: Mycobacterium tuberculosis variant bovis BCG, 336 h, read-out: MIC Mycobacterium bovis BCG
Experimental Readout: log10 MIC (log10 of the value in µg/mL)

* O=C(/C=C/c1ccc([N+](=O)[O-])o1)c1ccc(N2CCOCC2)cc1 [Compound 1] | -1.22
* NNC(=O)c1ccncc1 [Isoniazid, reference compound] | -0.20
* O=C(/C=C/c1ccc([N+](=O)[O-])o1)c1ccc(N2CCCCC2)cc1 [Compound 2] | -2.12
* CCN(CC)c1ccc(C(=O)/C=C/c2ccc([N+](=O)[O-])o2)cc1 [Compound 3] | -1.52
* CN(Cc1cnc2nc(N)nc(N)c2n1)c1ccc(C(=O)N[C@@H](CCC(=O)O)C(=O)O)cc1 [Methotrexate, reference compound] | 2.70

###

- Target System: recombinant Mycobacterium marinum N-acetyltransferase (MMNAT) (Mycobacterium marinum, UniProt B2HIZ6)
- Sequence (B2HIZ6 entry or part of it): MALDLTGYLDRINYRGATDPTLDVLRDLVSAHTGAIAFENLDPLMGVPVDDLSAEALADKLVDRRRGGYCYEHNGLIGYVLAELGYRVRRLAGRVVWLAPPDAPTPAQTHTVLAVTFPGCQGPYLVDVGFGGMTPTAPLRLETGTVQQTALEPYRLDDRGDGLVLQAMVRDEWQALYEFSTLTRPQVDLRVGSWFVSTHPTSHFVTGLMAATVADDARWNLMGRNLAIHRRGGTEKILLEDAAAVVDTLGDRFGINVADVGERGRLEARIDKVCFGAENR
- Measurement Protocol: Inhibition of recombinant MMNAT (DTNB assay)
- Type: biochemical
- Run Conditions: hydralazine 450 µM, acetyl CoA 400 µM; extrapolated from linear regression; read-out: IC50 MMNAT
# reported IC50; entries follow
Experimental Readout: IC50 (nM)

- O=C(/C=C/c1ccc([N+](=O)[O-])o1)c1ccc(N2CCOCC2)cc1: 207
- CCN(CC)c1ccc(C(=O)/C=C/c2ccc([N+](=O)[O-])o2)cc1: 134
- O=C(/C=C/c1ccc([N+](=O)[O-])o1)c1ccc(N2CCCCC2)cc1: 269

###

# reported pIC50; entries follow
- Target System: recombinant Mycobacterium marinum N-acetyltransferase (MMNAT) (Mycobacterium marinum, UniProt B2HIZ6)
- Measurement Protocol: Inhibition of recombinant MMNAT (DTNB assay)
- Format: biochemical
- Run Conditions: hydralazine 450 µM, acetyl CoA 400 µM; extrapolated from linear regression; read-out: IC50 MMNAT
pIC50: −log10 of the molar value.
Experimental Readout: pIC50

• NNC(=O)c1ccncc1 [Isoniazid, reference compound] = < 6.00
• O=[N+]([O-])c1cn2c(n1)OC[C@@H](OCc1ccc(OC(F)(F)F)cc1)C2 [Pretomanid] = < 6.00
• CC[C@@H](CO)NCCN[C@@H](CC)CO [Ethambutol] = < 6.00
